- Target: HLA-A*02:06
- Assay protocol: IEDB peptide-MHC binding, purified MHC/direct/fluorescence; filed as Kd, often an IC50 or EC50 that approximates it; bounds were set here for any values at or beyond the usual limits of such assays
- Condition: source organism: Entamoeba histolytica HM-1:IMSS
Outcome measure: Kd (nM)

>>> value_measured("RQRHYFDSA")
4

* * *

- Target: HLA-B*51:01
- Assay protocol: IEDB peptide-MHC binding, purified MHC/direct/fluorescence; filed as Kd, often an IC50 or EC50 that approximates it; bounds were set here for any values at or beyond the usual limits of such assays
- Condition: source organism: Giardia lamblia ATCC 50803
Outcome measure: Kd

>>> value_measured("VAAKGAPAL")
"≥ 20 µM"

Ref: the Immune Epitope Database (IEDB)
